# assay: 91-day once-daily latanoprost ointment, plasma PK after last dose in minipigs
# Format: in vivo
# condition: both sexes, topical or ocular, 0.5 % w/w; minipig, topical (percutaneous) latanoprost; first-order fit of 24, 48, 72 h plasma values; read-out: terminal elimination half-life
endpointLabel: half-life

Lookup: Recorded half-life for O=C(O)CCC/C=C\C[C@@H]1[C@@H](CC[C@@H](O)CCc2ccccc2)[C@H](O)C[C@@H]1O [latanoprost free acid] , please?
Found: 1080 to 1440 min
